Cited source for all entries: patent US9249129B2

Below: a set of entries, each annotated with reported IC50.
- assay target: kinases (kinome) (Homo sapiens, UniProt Q07912)
- Construct: determined in kinobeads assays with mass spectrometry detection of kinases as described previously; endogenous in cells
- Sequence (Q07912 whole entry): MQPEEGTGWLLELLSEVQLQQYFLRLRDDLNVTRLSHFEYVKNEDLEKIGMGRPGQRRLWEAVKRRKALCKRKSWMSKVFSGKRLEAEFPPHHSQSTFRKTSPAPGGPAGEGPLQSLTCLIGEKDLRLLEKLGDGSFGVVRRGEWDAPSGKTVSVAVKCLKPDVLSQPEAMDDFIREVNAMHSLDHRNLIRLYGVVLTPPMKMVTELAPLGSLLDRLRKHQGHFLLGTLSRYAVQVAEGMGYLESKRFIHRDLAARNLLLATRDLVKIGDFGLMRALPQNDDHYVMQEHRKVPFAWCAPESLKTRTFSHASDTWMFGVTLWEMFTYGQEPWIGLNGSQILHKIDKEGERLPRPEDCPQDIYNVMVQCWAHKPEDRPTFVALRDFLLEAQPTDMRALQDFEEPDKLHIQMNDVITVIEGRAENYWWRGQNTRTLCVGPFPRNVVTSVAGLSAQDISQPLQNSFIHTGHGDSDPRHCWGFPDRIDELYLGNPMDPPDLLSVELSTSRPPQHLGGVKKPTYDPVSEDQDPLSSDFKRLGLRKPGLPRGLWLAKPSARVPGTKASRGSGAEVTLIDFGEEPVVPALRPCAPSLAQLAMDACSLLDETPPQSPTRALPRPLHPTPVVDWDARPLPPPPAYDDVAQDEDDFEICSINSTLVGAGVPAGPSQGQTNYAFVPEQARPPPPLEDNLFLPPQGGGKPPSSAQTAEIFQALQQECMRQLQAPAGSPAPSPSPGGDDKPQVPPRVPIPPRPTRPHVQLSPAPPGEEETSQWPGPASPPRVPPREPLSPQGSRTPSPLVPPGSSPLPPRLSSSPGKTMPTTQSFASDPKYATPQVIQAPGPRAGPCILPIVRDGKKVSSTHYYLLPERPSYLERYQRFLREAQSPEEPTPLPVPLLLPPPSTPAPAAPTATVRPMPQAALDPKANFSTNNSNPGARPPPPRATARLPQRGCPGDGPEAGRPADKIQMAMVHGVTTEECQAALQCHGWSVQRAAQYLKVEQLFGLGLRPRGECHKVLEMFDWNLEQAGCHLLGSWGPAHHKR
- experiment summary: kinobeads assay with mass spectrometry detection of kinases (kinase selectivity profile)
- protocol conditions: ACK (TK), IPI00552750
quantity: IC50

INSERT INTO assay_data (smiles_structure, experimental_result) VALUES
  ('C[C@H]1COCCN1c1cc(-c2ccccn2)nc(-c2ccc(NC(=O)NCCO)cc2)n1', '> 10 µM'),
  ('CCNC(=O)Nc1ccc(-c2cc(-c3ccccc3C#N)nc(N3CCOC[C@@H]3C)n2)cc1', '> 10 µM'),
  ('C[C@H]1COCCN1c1nc(-c2ccc(NC(=O)NC3CC3)cc2)cc(-c2cc(F)ccc2S(C)(=O)=O)n1', '> 10 µM');
